- Test system: von Hippel-Lindau disease tumor suppressor/GTPase KRas (Homo sapiens), P01116+P40337 [G12D]
- Sequence (P01116 whole entry G12D): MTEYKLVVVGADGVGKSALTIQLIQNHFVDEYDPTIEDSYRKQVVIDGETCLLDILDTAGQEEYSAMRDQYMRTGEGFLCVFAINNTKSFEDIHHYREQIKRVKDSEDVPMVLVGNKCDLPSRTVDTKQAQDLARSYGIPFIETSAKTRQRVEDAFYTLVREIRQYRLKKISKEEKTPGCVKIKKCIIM
- Sequence (P40337 whole entry partner): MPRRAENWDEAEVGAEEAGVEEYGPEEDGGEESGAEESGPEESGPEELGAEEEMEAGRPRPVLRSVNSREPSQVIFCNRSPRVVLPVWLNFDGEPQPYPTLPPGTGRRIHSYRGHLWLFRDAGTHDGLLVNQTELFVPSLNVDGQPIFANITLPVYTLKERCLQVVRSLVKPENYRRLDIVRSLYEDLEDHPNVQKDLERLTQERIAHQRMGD
- procedure summary: PROTAC activity at VHL/HiBit-tagged KRAS G12D mutant (unknown origin) in human GP5d cells assessed as induction of KRAS G12D protein degradation incubated for 18 hrs by Nano-Gio HiBiT assay relative control
- Format: cell-based
The molecules listed here are annotated with their Emax.

• Cc1ncsc1-c1ccc(CNC(=O)[C@@H]2C[C@@H](O)CN2C(=O)C(c2cc(OCCCCN3CCCN(c4nccc(-c5cc([C@@]6(C)CCCc7sc(N)c(C#N)c76)on5)n4)[C@@H](C)C3)no2)C(C)C)cc1 (some centres undefined) = 94%
• Cc1ncsc1-c1ccc([C@H](C)NC(=O)[C@@H]2C[C@@H](O)CN2C(=O)C(C(C)C)n2cc(OCCCCN3CCCN(c4nccc(-c5noc([C@@]6(C)CCCc7sc(N)c(C#N)c76)n5)n4)[C@@H](C)C3)nn2)cc1 (single isomer, unassigned) = 93%

Q: Consider the molecule Cc1ncsc1-c1ccc(CNC(=O)[C@@H]2C[C@@H](O)CN2C(=O)C(c2cc(OCCCCN3CCCN(c4nccc(-c5cc([C@@]6(C)CCCc7sc(N)c(C#N)c76)no5)n4)[C@@H](C)C3)no2)C(C)C)cc1 (single isomer, unassigned) . State its measured Emax.
Ans: 92%

Q: Consider the molecule Cc1ncsc1-c1ccc([C@H](CO)NC(=O)[C@@H]2C[C@@H](O)CN2C(=O)[C@H](C(C)C)n2cc(OCCCC(C)N3CCCN(c4nccc(-c5noc([C@@]6(C)CCCc7sc(N)c(C#N)c76)n5)n4)[C@@H](C)C3)nn2)cc1 (single isomer, unassigned) . State its measured Emax.
Ans: 94%

====

- study target: von Hippel-Lindau disease tumor suppressor/GTPase KRas (Homo sapiens, UniProt P01116+P40337, G12D)
- Sequence (P01116 whole entry G12D, stated change not applied): as the sequence (P01116 whole entry G12D) above
- Sequence (P40337 whole entry, stated change not applied): as the sequence (P40337 whole entry partner) above
- procedure summary: PROTAC activity at VHL/N-terminal HiBit-tagged KRAS G12D mutant (unknown origin) in human GP5d cells assessed as induction of KRAS G12D protein degradation incubated for 18 hrs by Nano-Gio HiBiT assay
- Assay type: cell-based
// NB: equality with 4 nM counts as not satisfied; only DC50 strictly below is satisfied

- Cc1ncsc1-c1ccc(CNC(=O)[C@@H]2C[C@@H](O)CN2C(=O)C(c2cc(OCCCCN3CCCN(c4nccc(-c5cc([C@@]6(C)CCCc7sc(N)c(C#N)c76)no5)n4)[C@@H](C)C3)no2)C(C)C)cc1 (single isomer, unassigned): not satisfied
- Cc1ncsc1-c1ccc(CNC(=O)[C@@H]2C[C@@H](O)CN2C(=O)C(c2cc(OCCCN3CCCN(c4nccc(-c5noc([C@@]6(C)CCCc7sc(N)c(C#N)c76)n5)n4)[C@@H](C)C3)no2)C(C)C)cc1 (some centres undefined): not satisfied

Q: In the record for Cc1ncsc1-c1ccc(CNC(=O)[C@@H]2C[C@@H](O)CN2C(=O)C(c2cc(OCCCCN3CCCN(c4nccc(-c5cc([C@@]6(C)CCCc7sc(N)c(C#N)c76)on5)n4)[C@@H](C)C3)no2)C(C)C)cc1 (some centres undefined) , is DC50 less than 4 nM?
Ans: not satisfied

====

- Tested on: von Hippel-Lindau disease tumor suppressor/GTPase KRas (Homo sapiens), P01116+P40337 [G12D]
- procedure summary: PROTAC activity at VHL/HiBit-tagged KRAS G12D mutant (unknown origin) in human GP5d cells assessed as induction of KRAS G12D protein degradation incubated for 18 hrs by Nano-Gio HiBiT assay relative control
- Format: cell-based
measurement label: Emax (%)
Entry rule: numbers only, all in %.

Some entries whose results are on file:
- Cc1ncsc1-c1ccc(CNC(=O)[C@@H]2C[C@@H](O)CN2C(=O)C(c2cc(OCCCCN3CCCN(c4nccc(-c5noc([C@@]6(C)CCCc7sc(N)c(C#N)c76)n5)n4)[C@@H](C)C3)no2)C(C)C)cc1F (stereo not given in full): 92
- Cc1ncsc1-c1ccc([C@@H](NC(=O)[C@H]2C[C@H](O)CN2C(=O)[C@@H](C(C)C)n2cc(OCCCN3CCCN(c4nccc(-c5noc([C@@]6(C)CCCc7sc(N)c(C#N)c76)n5)n4)[C@@H](C)C3)nn2)[C@@H](O)C(C)C)cc1: 93
- Cc1ncsc1-c1ccc([C@H](NC(=O)[C@@H]2C[C@@H](O)CN2C(=O)[C@H](C(C)C)n2cc(OCCCCN3CCCN(c4nccc(-c5noc([C@@]6(C)CCCc7sc(N)c(C#N)c76)n5)n4)[C@@H](C)C3)nn2)[C@H](C)O)cc1 (single isomer, unassigned): 94
- Cc1ncsc1-c1ccc(CNC(=O)[C@@H]2C[C@@H](O)CN2C(=O)C(c2cc(OCCCCN3CCCN(c4nccc(-c5noc([C@@]6(C)CCCc7sc(N)c(C#N)c76)n5)n4)[C@@H](C)C3)no2)C(C)C)cc1 (stereo not given in full): 91

# ---- query molecule ----
Q: Consider the molecule Cc1ncsc1-c1ccc(CNC(=O)[C@@H]2C[C@@H](O)CN2C(=O)C(c2cc(OCCCN3CCCN(c4nccc(-c5noc([C@@]6(C)CCCc7sc(N)c(C#N)c76)n5)n4)[C@@H](C)C3)no2)C(C)C)cc1 (stereo not given in full) . State its measured Emax.
Ans: 94

====

- study target: von Hippel-Lindau disease tumor suppressor/GTPase KRas (Homo sapiens, UniProt P01116+P40337, G12D)
- procedure summary: PROTAC activity at VHL/N-terminal HiBit-tagged KRAS G12D mutant (unknown origin) in human GP5d cells assessed as induction of KRAS G12D protein degradation incubated for 18 hrs by Nano-Gio HiBiT assay
- Assay type: cell-based
// NB: equality with 2 nM counts as F; only DC50 strictly below is T

Past entries and their recorded results:
• Cc1ncsc1-c1ccc([C@H](NC(=O)[C@@H]2C[C@@H](O)CN2C(=O)[C@H](C(C)C)n2cc(OCCCCN3CCCN(c4nccc(-c5noc([C@@]6(C)CCCc7sc(N)c(C#N)c76)n5)n4)[C@@H](C)C3)nn2)[C@H](C)O)cc1 (single isomer, unassigned) = T
• Cc1ncsc1-c1ccc([C@H](CO)NC(=O)[C@@H]2C[C@@H](O)CN2C(=O)[C@H](C(C)C)n2cc(OCCCC(C)N3CCCN(c4nccc(-c5noc([C@@]6(C)CCCc7sc(N)c(C#N)c76)n5)n4)[C@@H](C)C3)nn2)cc1 (single isomer, unassigned) = T
• Cc1ncsc1-c1ccc([C@@H](NC(=O)[C@H]2C[C@H](O)CN2C(=O)[C@@H](C(C)C)n2cc(OCCCN3CCCN(c4nccc(-c5noc([C@@]6(C)CCCc7sc(N)c(C#N)c76)n5)n4)[C@@H](C)C3)nn2)[C@@H](O)C(C)C)cc1 = T
• Cc1ncsc1-c1ccc(CNC(=O)[C@@H]2C[C@@H](O)CN2C(=O)C(c2cc(OCCCCN3CCCN(c4nccc(-c5noc([C@@]6(C)CCCc7sc(N)c(C#N)c76)n5)n4)[C@@H](C)C3)no2)C(C)C)cc1 (stereo partly specified) = F
• Cc1ncsc1-c1ccc([C@H](C)NC(=O)[C@@H]2C[C@@H](O)CN2C(=O)C(C(C)C)n2cc(OCCCCN3CCCN(c4nccc(-c5noc([C@@]6(C)CCCc7sc(N)c(C#N)c76)n5)n4)[C@@H](C)C3)nn2)cc1 (single isomer, unassigned) = T

In the following, a different molecule is considered.
Q: In the record for Cc1ncsc1-c1ccc(CNC(=O)[C@@H]2C[C@@H](O)CN2C(=O)C(c2cc(OCCCCN3CCCN(c4nccc(-c5noc([C@@]6(C)CCCc7sc(N)c(C#N)c76)n5)n4)[C@@H](C)C3)no2)C(C)C)cc1F (stereo partly specified) , is DC50 less than 2 nM?
Ans: F
